tested on: NOMO1; test: cell viability relative to DMSO control; higher = less cytotoxic; details: RPMI 5 mM glucose + 10% dialyzed FBS; 48 h; 0.0211 µM
Property label: cell viability (%)
Number in %, nothing else.

A selection of reference data follows.
CC(N[C@H]1C[C@@H]1c1ccccc1)c1ccc2c(c1)OCCO2 (stereo not given in full)
126
COc1ccc(C[C@@H](C)[C@@H](C)Cc2ccc(OC)c(OC)c2)cc1OC
97.6
C[C@H]1[C@H](NC(=O)/C(=N/OC(C)(C)C(=O)O)c2csc(N)n2)C(=O)N1[S+](=O)([O-])O
92.3

Supply measured cell viability of CCN(CC)CC#CCOC(=O)C(O)(c1ccccc1)C1CCCCC1 (stereo not given) in your reply.
124

Identify measured cell viability corresponding to "COC1=CC=CC2=C1C(=NC(=N2)C3=CC=CS3)NN4C(=O)\C=C(C)/C4=O"
82.4

----------
tested on: SEM cells; assay: cell viability relative to DMSO control; higher = less cytotoxic; conditions: RPMI 5 mM glucose + 10% FBS; 48 h; 0.19 µM
Property label: cell viability (%)
Enter your answer as a number in %; do not include the unit.

Take a look at these entries with their results.
CN(C)CCOc1cc(-c2cn[nH]c2)ccc1NC(=O)C1COc2ccccc2O1 (stereo unspecified)
90.7
Cn1c(=O)c2c(ncn2C)n(C)c1=O.O=C(O)CC(O)(CC(=O)O)C(=O)O
106
N=C(CCSCc1csc(N=C(N)N)n1)N[S+](N)(=O)[O-]
102
C/C=C(/C)C(=O)O[C@H]1C(C)=C2[C@H]([C@@H]1OC(=O)CCCCCCC)[C@@](C)(OC(C)=O)C[C@H](OC(=O)CCC)[C@@]1(O)[C@H]2OC(=O)[C@@]1(C)O
10.4
Oc1ccc2c3c1O[C@H]1c4[nH]c5c(c4C[C@@]4(O)[C@@H](C2)N(CC2CC2)CC[C@]314)C[C@@]1(O)[C@H]2Cc3ccc(O)c4c3[C@@]1(CCN2CC1CC1)[C@H]5O4
119

Please report cell viability for the following compound: Cc1ccccc1N1C(=O)c2cc([S+](N)(=O)[O-])c(Cl)cc2NC1C (stereo unspecified)
126

Tell me measured cell viability for CCC(C)SSc1ncc[nH]1 (stereo unspecified) please.
109

Hello, please tell me recorded cell viability for this one: "O=NN(CCCl)C(=O)NC1CCCCC1"
93.7

Give the value of cell viability reported for the following: "Cc1nc(NC(=O)N2CCC[C@H]2C(N)=O)sc1-c1ccnc(C(C)(C)C(F)(F)F)c1"
91.1

Identify measured cell viability associated with CC(C)NCC(O)COc1ccc(COCCOC(C)C)cc1 (stereo unspecified)
118

Return value of cell viability for input "CC(C)(C)c1cc(NC(=O)Nc2ccc(-c3cn4c(n3)sc3cc(OCCN5CCOCC5)ccc34)cc2)no1" , no commentary.
46.3

----------
test system: SEM cells; assay: cell viability relative to DMSO control; higher = less cytotoxic; settings: HPLM + 10% dialyzed FBS; 48 h; 0.0632 µM
Property label: cell viability (%)
Form entry: value (%) — number only.

Worked cases, cell viability given:
CC(N[C@H]1C[C@@H]1c1ccccc1)c1ccc2c(c1)OCCO2 (stereo partly specified)
110
CC/1=C/C(=O)N(O)/C(=C1)C2CCCCC2
116
COc1ccc(C[C@@H](C)[C@@H](C)Cc2ccc(OC)c(OC)c2)cc1OC
96

Specify cell viability for O=C(NOCC(O)CO)c1cc(Br)c(F)c(F)c1Nc1ccc(I)cc1F (stereo unspecified) and stop.
77.2

Specify reported cell viability for the compound shown: "CN[S+](=O)([O-])Cc1ccc2[nH]cc(CCN(C)C)c2c1"
112

Identify the reported cell viability for the following entry. "C/C=C(/C)C(=O)O[C@H]1C(C)=C2[C@H]([C@@H]1OC(=O)CCCCCCC)[C@@](C)(OC(C)=O)C[C@H](OC(=O)CCC)[C@@]1(O)[C@H]2OC(=O)[C@@]1(C)O"
57

Give the measured cell viability for "CO[C@H]1/C=C/O[C@@]2(C)Oc3c(C)c(O)c4c(O)c(c5c(nc6cc(C)ccn65)c4c3C2=O)NC(=O)/C(C)=C\C=C\[C@H](C)[C@H](O)[C@@H](C)[C@@H](O)[C@@H](C)[C@H](OC(C)=O)[C@@H]1C"
92.5

Return cell viability for the following compound: "C[C@H](O)[C@H]1[C@@H]2[C@H](C)C(=C(\N2C1=O)C(O)=O)/S[C@@H]3CN[C@H](CN[S+](N)([O-])=O)C3"
132

----------
test system: SEM cells; experiment: cell viability relative to DMSO control; higher = less cytotoxic; details: RPMI 5 mM glucose + 10% dialyzed FBS; 48 h; 0.569 µM
Property label: cell viability
Provide the measurement as a number trailed by its unit.

C[C@H](NC(=O)/C(C#N)=C/c1cccc(Br)n1)c1ccccc1
108%
COc1cc2c(cc1OC)C1CC(=O)C(CC(C)C)CN1CC2 (stereo not drawn)
111%
Cc1cn2c(-c3cn[nH]c3)cnc2c(Nc2ccc(C(=O)N3CCNCC3)cc2F)n1
114%
CC/1=C/C(=O)N(O)/C(=C1)C2CCCCC2
140%
CC\1=C(C(\N=C(/N1)C2=CC(=NC=C2)Cl)C3=C(F)C=C(Cl)C=C3)/C(=O)NC4=C(F)C=C5[NH]N=CC5=C4 (stereo not drawn)
96.3%

Entry "Cc1cc(OCCCc2c(C(=O)O)n(Cc3cccnc3)c3c(-c4c(COc5ccc(N6CCN([S+](C)(=O)[O-])CC6)cc5)nn(C)c4C)cccc23)cc(C)c1Cl" needs its cell viability filled in; supply it.
90.7%

Tell me its cell viability given "CN[S+](=O)([O-])Cc1ccc2[nH]cc(CCN(C)C)c2c1" as the entry.
95.7%

Provide cell viability value for the following compound: "OC[C@H]1O[C@@H](O[C@@H]2[C@@H](CO)O[C@](O)(CO)[C@H]2O)[C@H](O)[C@@H](O)[C@H]1O"
94.6%

----------
cell viability: recorded values
tested on: SEM cells; assay: cell viability relative to DMSO control; higher = less cytotoxic; settings: HPLM + 10% dialyzed FBS; 48 h; 0.000781 µM
Respond numerically; units are % and should not be typed.

Retrieve cell viability on SEM cells; query "COc1c(C)cnc(Cn2cnc3c(Cl)nc(N)nc32)c1C"
94.1

Find the measured cell viability of Cc1ccccc1C(C(=O)NC1CCCCC1)N(C(=O)Cn1ccnc1C)c1cccc(F)c1 (stereo not given) with SEM cells as test system.
109

Report cell viability from SEM cells testing of "C[C@H](O)[C@H]1[C@@H]2[C@H](C)C(=C(\N2C1=O)C(O)=O)/S[C@@H]3CN[C@H](CN[S+](N)([O-])=O)C3"
116

State cell viability on SEM cells. Entry: "COC1=NC(=NC(=C1N\C2=N\CCN2)Cl)C"
71.4

For SEM cells, give cell viability of the listed compound: "CC[C@H](CC#N)OC(=O)N[C@@H](C)c1cccc(NC(=O)Nc2ccc(-c3cnco3)c(OC)c2)c1"
105

----------
test system: P12-Ichikawa; test: cell viability relative to DMSO control; higher = less cytotoxic; conditions: HPLM + 10% dialyzed FBS; 48 h; 0.0632 µM
// cell viability lookup, one value per entry
Please reply with the bare figure in % and do not write the unit itself.

Quick one: give measured cell viability for "CC(=O)O.Cc1c(-c2ccc(O)cc2)n(Cc2ccc(OCCN3CCCCCC3)cc2)c2ccc(O)cc12"
101

Provide only the value of recorded cell viability for "CC[C@H](CC[C@@H](C)[C@H]1CC[C@H]2[C@@H]3C\C=C/4C[C@@H](O)CC[C@]4(C)[C@H]3CC[C@]12C)C(C)C"
112

Query cell viability for "COC1=NC(=NC(=C1N\C2=N\CCN2)Cl)C"
94.8

Recall and state the measured cell viability for "CN(CC#C)C/C1=C/C2=CC=CC=C2OC3=CC=CC=C13" .
90.8

Tell us which cell viability value is on record for "CC1=CC=CC=C1N2\C(=N/C3=C(C(=CC=C3)C)C2=O)C[N]4C=NC5=C4N=CN=C5N"
120

----------
tested on: P12-Ichikawa; assay: cell viability relative to DMSO control; higher = less cytotoxic; conditions: RPMI 5 mM glucose + 10% FBS; 48 h; 0.19 µM
Property label: cell viability

CCC1(C)CC(=O)NC1=O (centres undefined)
105%
C=C(C)[C@@H]1CC[C@]2(C(=O)O)CC[C@]3(C)[C@H](CC[C@@H]4[C@@]5(C)CC[C@H](O)C(C)(C)[C@@H]5CC[C@]43C)[C@@H]12
107%
CCc1cc(Nc2nccc(-c3c(-c4ccc(OC)c(C(=O)Nc5c(F)cccc5F)c4)nc4ccccn34)n2)c(OC)cc1N1CCC(N2CCN([S+](C)(=O)[O-])CC2)CC1
113%

# context switch: different compound, same cell viability
Report measured cell viability; entry is "Cl.Cl.Cl.O[C@@H](COc1cccc2ncccc12)CN1CCN([C@@H]2c3ccccc3[C@@H]3[C@H](c4ccccc42)C3(F)F)CC1"
87%

Data origin, for the record: the supplement of paper PMC11451515
